- TESTED TARGET: T1, Cyno TREM2 (Cyno, UniProt A0A2K5UY34 49-161)
- T1 construct: range 19-131; also called Cyno BLI
- T1 sequence: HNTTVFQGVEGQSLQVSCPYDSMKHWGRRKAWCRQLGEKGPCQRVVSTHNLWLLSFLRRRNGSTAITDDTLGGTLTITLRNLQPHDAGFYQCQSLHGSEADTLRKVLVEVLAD
- METHOD: BLI steady state, cyno TREM2 on sensor
*1 amine or outer side, *2 acyl side, *3 side chain or, on linkers, in order; H or OH if unused. Bridges are numbered along the chain shown (N, C = ends). Where no end group is shown, it is not given here. TATA = O=C(CC[*:1])N1CN(C(=O)CC[*:2])CN(C(=O)CC[*:3])C1

BINDER	Kd, µM
ACSEYCFWPFYHCA (linker 2-6-13 via TATA) [BCY16054]	3.3
